FYI, the data here is from patent US12570655B2.

Molecular target: AKT2 (Homo sapiens)
Construct: expressed in transfected cells; host or cells: HEK293
Sequence (P31751 whole entry): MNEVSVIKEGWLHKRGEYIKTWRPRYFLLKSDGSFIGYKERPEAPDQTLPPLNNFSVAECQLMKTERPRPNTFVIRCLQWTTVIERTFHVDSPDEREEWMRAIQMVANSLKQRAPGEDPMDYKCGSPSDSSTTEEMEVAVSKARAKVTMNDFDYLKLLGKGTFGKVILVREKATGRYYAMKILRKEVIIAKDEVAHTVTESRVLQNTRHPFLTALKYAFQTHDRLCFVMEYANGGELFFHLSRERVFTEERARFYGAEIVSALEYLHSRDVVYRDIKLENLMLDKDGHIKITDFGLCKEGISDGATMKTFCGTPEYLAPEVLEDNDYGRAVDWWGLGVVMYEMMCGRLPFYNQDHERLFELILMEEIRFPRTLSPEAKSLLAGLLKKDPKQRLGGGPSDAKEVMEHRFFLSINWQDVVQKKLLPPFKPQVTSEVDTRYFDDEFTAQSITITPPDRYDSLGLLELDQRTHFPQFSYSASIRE
Experiment: Live cell AKT2 target engagement by NanoBRET competitive probe displacement
Assay type: cell-based
Details: HEK293 cells transfected with kinase-NanoLuciferase fusion, 2 h at 37° C.
Procedure: Determining Live Cell AKT1 E17K, AKT1 WT, and AKT2 Target Engagement by NanoBRET Competitive Probe Displacement. Live cell target engagement assays were performed as described (Vasta, J. D. et al. Cell Chem Biol 2018, 25(11), 206-214). […] After incubation for 2 h at 37° C., luciferase substrate and extracellular luciferase inhibitor were added to all wells, and luminescent intensity at 460 nm and 600 nm were measured on a multimode plate-reader. […]
pIC50: −log10 of the molar value.
Given measured pIC50, output Y if it is greater than or equal to 6 and N if not.

compound	qualitative.label
C=CC(=O)N1CCC(N[C@@H]2c3ccc(-n4c(-c5cccnc5N)nc5ccc(-n6cccn6)nc54)cc3CC2F)C(C)C1 (single isomer, unassigned) [Example 290]	Y

Does pIC50 meet or surpass 6 for C=CC(=O)NC1CC(N[C@H]2CCc3cc(-n4c(-c5cccnc5N)nc5ccc(-n6cccn6)nc54)ccc32)C1 (single isomer, unassigned) [Example 90] ?
Y

Does pIC50 meet or surpass 6 for C=CC(=O)N1CCC(N[C@@H]2c3ccc(-n4c(-c5cccnc5N)nc5ccc(-c6ccn(C(F)F)n6)nc54)cc3CC2F)CC1 (stereo partly drawn) ?
Y

Does pIC50 meet or surpass 6 for C=CC(=O)N1CCC(N[C@H]2CCc3cc(-n4c(-c5cccnc5N)nc5ccc(-c6cc7n(n6)CCOC7)nc54)ccc32)CC1 ?
Y

Does pIC50 meet or surpass 6 for C=CC(=O)N1CCC(N[C@@H]2c3ccc(-n4c(-c5cccnc5N)nc5ccc(-n6ccc(C7CC7)n6)nc54)cc3CC2F)CC1 (single isomer, unassigned) [Example 297] ?
Y

Does pIC50 meet or surpass 6 for C=CC(=O)N1CCC(N[C@H]2CCc3cc(-n4c(-c5cccnc5N)nc5ccc(C6CC6)nc54)ccc32)C[C@H]1C (single isomer, unassigned) [Example 211] ?
Y

Does pIC50 meet or surpass 6 for C=CC(=O)Nc1cc(F)ccc1C(=O)N[C@H]1CCc2cc(-n3c(-c4cccnc4N)nc4ccc(-n5cccn5)nc43)ccc21 ?
Y

Does pIC50 meet or surpass 6 for C=CC(=O)N1CCC(N[C@H]2CCc3cc(-n4c(-c5cccnc5N)nc5ccc(-n6cccn6)nc54)ccc32)C(F)C1 (single isomer, unassigned) [Example 103] ?
Y

Does pIC50 meet or surpass 6 for C=CC(=O)N(C)CC(=O)N[C@H]1CCc2cc(-n3c(-c4cccnc4N)nc4ccc(-n5cccn5)nc43)ccc21 ?
N

Does pIC50 meet or surpass 6 for C=CC(=O)N1CCC(N[C@H]2CCc3cc(-n4c(-c5cccnc5N)nc5ccc(-n6cccn6)nc54)ccc32)CC12CCC2 (single isomer, unassigned) [Example 94] ?
N

Does pIC50 meet or surpass 6 for C=CC(=O)N1CC2(CCC(N[C@H]3CCc4cc(-n5c(-c6cccnc6N)nc6ccc(-n7cccn7)nc65)ccc43)CC2)C1 ?
Y

* * *

target: AKT1 WT (Homo sapiens, UniProt P31749); assay: Live cell AKT1 WT target engagement by NanoBRET competitive probe displacement; conditions: HEK293 cells transfected with kinase-NanoLuciferase fusion, 2 h at 37° C.
Sequence (P31749 whole entry, the tested form may be a part): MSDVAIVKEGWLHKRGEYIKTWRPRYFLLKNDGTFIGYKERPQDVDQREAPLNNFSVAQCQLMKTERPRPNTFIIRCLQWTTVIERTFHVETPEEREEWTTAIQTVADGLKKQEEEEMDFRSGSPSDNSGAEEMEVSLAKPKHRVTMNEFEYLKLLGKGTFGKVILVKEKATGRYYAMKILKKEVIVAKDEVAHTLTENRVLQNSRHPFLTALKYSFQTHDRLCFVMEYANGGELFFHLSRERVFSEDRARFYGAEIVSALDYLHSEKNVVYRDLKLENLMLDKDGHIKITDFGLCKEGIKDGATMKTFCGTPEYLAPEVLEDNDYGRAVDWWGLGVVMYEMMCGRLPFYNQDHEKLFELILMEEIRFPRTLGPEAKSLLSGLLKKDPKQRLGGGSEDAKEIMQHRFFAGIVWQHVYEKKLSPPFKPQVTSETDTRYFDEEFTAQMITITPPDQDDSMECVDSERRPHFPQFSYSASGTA
parameter.measured: pIC50
Note: pIC50 values are expressed as the negative base-10 logarithm of concentration in M.

As a guide, the following entries are already answered.
                                   compound  observed
0  C=CC(=O)N1CCC(N[C@@H]2c3ccc(-n4c(-c5cccnc5N)nc5ccc(-n6cccn6)nc54)cc3C[C@@H]2F)CC1      7.63
1  C=CC(=O)N1CC2COCC(C1)C2N[C@H]1CCc2cc(-n3c(-c4cccnc4N)nc4ccc(-n5cccn5)nc43)ccc21 (mixture of isomers)      7.70
2  C=C(F)C(=O)Nc1ccccc1C(=O)N[C@H]1CCc2cc(-n3c(-c4cccnc4N)nc4ccc(-n5cccn5)nc43)ccc21      7.71
3  C=CC(=O)N1CCC(N[C@H]2CCc3cc(-n4c(-c5cccnc5N)nc5ccc(-n6cccn6)nc54)ccc32)C(OC)C1 (single isomer, unassigned) [Example 115]      8.09
4  C#CC1CC(N[C@H]2CCc3cc(-n4c(-c5cccnc5N)nc5ccc(-n6cccn6)nc54)ccc32)CCN1C(=O)C=C (single isomer, unassigned) [Example 113]      8.13

Let us move to another entry and its pIC50.
Consider C=C(F)C(=O)Nc1ccccc1C(=O)N[C@H]1CCc2cc(-n3c(-c4cccnc4N)nc4ccc(-n5nccn5)nc43)ccc21 . Its measured pIC50 is 7.30
